Biological target: PPARγ-RXRα heterodimer (Homo sapiens, UniProt P37231)
Sequence (P37231 1-477 isoform P37231-2): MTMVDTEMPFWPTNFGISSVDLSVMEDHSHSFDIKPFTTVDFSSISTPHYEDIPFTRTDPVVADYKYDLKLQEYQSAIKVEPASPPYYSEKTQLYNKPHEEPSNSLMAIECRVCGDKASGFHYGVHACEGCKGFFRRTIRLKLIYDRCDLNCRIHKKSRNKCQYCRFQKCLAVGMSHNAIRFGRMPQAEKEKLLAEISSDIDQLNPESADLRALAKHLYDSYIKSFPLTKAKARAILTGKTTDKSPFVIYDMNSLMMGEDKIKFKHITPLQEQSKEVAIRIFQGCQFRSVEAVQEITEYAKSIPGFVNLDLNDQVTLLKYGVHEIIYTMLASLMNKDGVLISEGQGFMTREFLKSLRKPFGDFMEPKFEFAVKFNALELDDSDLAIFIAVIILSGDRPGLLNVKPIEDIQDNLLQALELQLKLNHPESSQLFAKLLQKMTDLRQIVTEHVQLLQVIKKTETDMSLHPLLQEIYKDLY
Sequence (P19793 1-462 partner): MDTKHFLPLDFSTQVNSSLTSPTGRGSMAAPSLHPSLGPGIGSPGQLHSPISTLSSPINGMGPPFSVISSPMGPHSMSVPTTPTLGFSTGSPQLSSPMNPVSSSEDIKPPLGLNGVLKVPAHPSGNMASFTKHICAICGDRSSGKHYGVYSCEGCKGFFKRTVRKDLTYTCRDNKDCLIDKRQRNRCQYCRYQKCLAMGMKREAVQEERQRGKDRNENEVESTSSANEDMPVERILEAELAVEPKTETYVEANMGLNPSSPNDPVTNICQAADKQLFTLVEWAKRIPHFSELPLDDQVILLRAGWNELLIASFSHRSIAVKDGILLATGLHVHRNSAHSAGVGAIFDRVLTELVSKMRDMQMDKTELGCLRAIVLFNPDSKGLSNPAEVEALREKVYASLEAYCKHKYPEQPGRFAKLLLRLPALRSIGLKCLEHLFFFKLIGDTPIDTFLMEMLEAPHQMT
Assay: PPARγ-RXRα heterodimer ligand activity, luciferase reporter in PPARγ:RXRα:4ERPP/CHO-K1 cells (Test Example 3)
Conditions: 18-48 hours, concentration for 50% of the maximum fold induction
RECORDED_METRIC: pEC50
Give only the number. pEC50 is defined as minus log10 of concentration in molar units.

IN: Can you look up the measured pEC50 of Cc1cccc(CC(=O)O)c1OCCCc1cn(-c2ccc(C(F)(F)F)cn2)nc1C1CCCCC1 [Example 316] for me?
OUT: 8.42

IN: Which pEC50 is reported for this compound? COc1cccc(CC(=O)O)c1OCCCc1cn(-c2ccc(C(F)(F)F)cn2)nc1C1CCCCC1 [Example 307]
OUT: 7.64

IN: Quick one: pEC50 of CCCc1nn(-c2ccc(C(F)(F)F)cn2)cc1CCCOc1c(C)cccc1CC(=O)O [Example 319] ?
OUT: 7.59

IN: Look up pEC50: CCOc1cccc(CC(=O)O)c1OCCCc1cn(-c2ccc(C(F)(F)F)cn2)nc1C1CCCCC1 [Example 306]
OUT: 7.77

IN: What does the record list as pEC50 for O=C(O)CCc1cc(OCCCc2cn(-c3ccc(C(F)(F)F)cn3)nc2C2CCCCC2)nn1-c1ccccc1 [Example 189] ?
OUT: 7.85

----------
RECORDED_METRIC: melting point

Worked examples, 3 compounds total:
> print(dat)
                                   molecule         result
1  CCOc1nn(-c2ccc(C(F)(F)F)cn2)cc1CCCOc1cc(OC)ccc1CCC(=O)O  115 to 116 °C
2  CCCc1nn(-c2ccc(C(F)(F)F)cn2)cc1CCCCn1cc(CCC(=O)[O-])c(OCC)n1.[Na+]  250 to 251 °C
3  CCCc1nn(-c2ccc(C(F)(F)F)cn2)cc1CCCCOc1nn(C)cc1CC(=O)O    95 to 97 °C

With those in mind, consider the next compound.
IN: Using the record for CCOc1nn(-c2ccc(C(F)(F)F)cn2)cc1CCCOc1nn(C)cc1CC(=O)O , report its melting point.
OUT: 115 to 116 °C

----------
RECORDED_METRIC: melting point

> print(dat)
                                   molecule         result
1  CCCCc1nn(-c2ccc(C(F)(F)F)cn2)cc1CCCOc1cc(CC(=O)O)ccc1OCC  105 to 106 °C
2  Cc1nn(-c2ccc(C(F)(F)F)cn2)cc1COc1cc(CCC(=O)O)n(C)n1  154 to 155 °C

IN: Fill in: melting point of CCCc1nn(-c2ccc(C(F)(F)F)cn2)cc1CCCOc1c(CC(=O)O)cccc1OCC is ___
OUT: 133 to 134 °C

IN: Recorded melting point of COc1cccc(CC(=O)O)c1OCCCc1cn(-c2ccc(C)cn2)nc1C(C)C , please.
OUT: 132 to 133 °C

----------
Below, each of the compounds is paired with its reported melting point value.

// solved cases for melting point follow
> print(dat)
                                   compound         result
1  CCC(CC)c1nn(-c2ccc(C(F)(F)F)cn2)cc1CCCOc1c(CC(=O)O)ccnc1C [Example 348]    78 to 79 °C
2  CCOc1nn(-c2ccc(C(F)(F)F)cn2)cc1CCCOc1cc(CCC(=O)O)cc(OC)c1 [Example 167]   99 to 100 °C
3  CCCc1nn(-c2ccc(C(F)(F)F)cn2)cc1CCCOc1ccc(C(C)(C)C(=O)O)cc1 [Example 157]    84 to 85 °C
4  CCCc1nn(-c2ccc(C(F)(F)F)cn2)cc1CCCOc1c(CC(=O)O)cnn1C [Example 321]  136 to 138 °C
5  O=C(O)CCc1cc(OCCCc2cn(-c3ccc(C(F)(F)F)cn3)nc2OCc2ccccc2)nn1-c1ccccc1 [Example 71]  159 to 161 °C

IN: For CCCc1nn(-c2ccc(C(F)(F)F)cn2)cc1CCCCOc1ccc(CCC(=O)O)c(OC)c1 [Example 89] , what is its reported melting point?
OUT: 91 to 92 °C

IN: Give its melting point value. Item: CCCc1nn(-c2ccc(C(F)(F)F)cn2)cc1CCCOc1ccc(OC)c(CCC(=O)O)c1 [Example 81]
OUT: 104 to 106 °C

IN: GET /values?readout=melting point&item= COc1cccc(CC(=O)O)c1OCCCc1cn(-c2ccc(C(C)=O)cn2)nc1C(C)C [Example 332]
OUT: 148 to 149 °C

IN: Entry O=C(O)Cc1ccccc1OCCCc1cn(-c2ccc(C(F)(F)F)cn2)nc1-c1ccccc1 [Example 134] has what melting point?
OUT: 133 to 134 °C

IN: If you can, please state the reported melting point value of CCOc1nn(-c2ccc(C(F)(F)F)cn2)cc1CCOc1ccccc1CC(=O)O [Example 57] .
OUT: 134 to 135 °C

IN: Recorded melting point of Cc1nn(-c2ccc(C(F)(F)F)cn2)cc1COc1cc(/C=C/C(=O)O)n(C)n1 [Example 37] , please.
OUT: 208 to 209 °C

IN: Given the entry CCCc1nn(-c2ccc(C(F)(F)F)cn2)cc1CCCOc1cc(CC(=O)O)ccc1F [Example 91] , report its measured melting point.
OUT: 88 to 89 °C

IN: Report melting point for CC(C)c1nn(-c2ccc(C(F)(F)F)cn2)cc1CCCOc1c(CC(=O)O)cnn1C [Example 318] please.
OUT: 146 to 148 °C

IN: Name the reported melting point value associated with the compound CCOc1nn(-c2ccc(C(F)(F)F)cn2)cc1CCOc1cccc(CC(=O)O)c1 [Example 62]
OUT: 128 to 130 °C

IN: Requested read-out: melting point. Entry: CC(C)c1nn(-c2ccc(C(F)(F)F)cn2)cc1CCCOc1c(F)cccc1CC(=O)O [Example 207]
OUT: 140 to 141 °C

IN: Reported melting point, compound CCn1cc(CC(=O)O)c(OCCCc2cn(-c3ccc(C(F)(F)F)cn3)nc2C(C)C)n1 [Example 313] : ____
OUT: 99 to 100 °C

----------
RECORDED_METRIC: melting point

> print(dat)
                                   compound         result
1  COc1ccc(CC(=O)O)cc1OCCCc1cn(-c2ccc(C(F)(F)F)cn2)nc1C(C)C [Example 183]  122 to 123 °C
2  CCOc1cc(OCCCCc2cc(-c3ccc(C(F)(F)F)cc3)no2)ccc1CCC(=O)O [Example 21]  105 to 106 °C
3  CCc1cccc(CC(=O)O)c1OCCCc1cn(-c2ccc(C(F)(F)F)cn2)nc1C(C)(C)C [Example 347]    98 to 99 °C

# next compound below
IN: Consider the compound CCOc1nn(-c2ccc(C(F)(F)F)cn2)cc1CCCOc1cc(CCC(=O)O)n(C2CCCCC2)n1 [Example 257] and give its measured melting point.
OUT: 89 to 90 °C
